We begin with a simple list: items and their reported Emax.
biological target: Lysophosphatidic acid receptor 1 (Homo sapiens, UniProt Q92633); experiment: Maximal efficacy to that of maximal efficacy of LPA against lysophosphatidic acid receptor 1 was determined in vitro
Sequence (Q92633 whole entry): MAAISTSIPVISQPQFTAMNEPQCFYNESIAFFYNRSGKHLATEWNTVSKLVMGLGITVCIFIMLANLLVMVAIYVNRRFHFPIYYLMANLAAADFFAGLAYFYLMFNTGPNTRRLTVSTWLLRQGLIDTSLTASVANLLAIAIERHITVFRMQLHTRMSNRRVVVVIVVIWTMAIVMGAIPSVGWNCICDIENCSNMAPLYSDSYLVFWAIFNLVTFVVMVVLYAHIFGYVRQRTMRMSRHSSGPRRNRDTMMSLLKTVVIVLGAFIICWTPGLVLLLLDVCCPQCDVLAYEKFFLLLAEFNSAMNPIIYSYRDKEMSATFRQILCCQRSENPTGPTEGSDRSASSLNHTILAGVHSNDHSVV

[
  {
    "molecule": "CCCCCCCC/C=C\\CCCCCCCC(=O)NCCC(=O)P(=O)(O)O",
    "Emax (%)": 80
  },
  {
    "molecule": "CCCCCCCC/C=C\\CCCCCCCC(=O)OC[C@@H](O)COP(=O)(O)O [LYSOPHOSPHATIDIC ACID]",
    "Emax (%)": 100
  },
  {
    "molecule": "CCCCCCCC/C=C\\CCCCCCCC(=O)NCCC(O)P(=O)(O)O (configuration not stated)",
    "Emax (%)": 80
  },
  {
    "molecule": "CCCCCCCC/C=C\\CCCCCCCC(=O)NCCOP(=O)(O)O",
    "Emax (%)": 100
  },
  {
    "molecule": "CCCCCCCC/C=C\\CCCCCCCC(=O)NCCC(=O)P(O)(O)=S",
    "Emax (%)": 80
  },
  {
    "molecule": "CCCCCCCC/C=C\\CCCCCCCC(=O)NCCC(=S)P(=O)(O)O",
    "Emax (%)": 50
  },
  {
    "molecule": "CCCCCCCC/C=C\\CCCCCCCC(=O)NCCCP(=O)(O)O",
    "Emax (%)": 50
  }
]

----------
target: Lysophosphatidic acid receptor 2 (Homo sapiens, UniProt Q9HBW0); experiment: Maximal efficacy to that of maximal efficacy of LPA against lysophosphatidic acid receptor 2 was determined in vitro
Sequence (Q9HBW0 whole entry): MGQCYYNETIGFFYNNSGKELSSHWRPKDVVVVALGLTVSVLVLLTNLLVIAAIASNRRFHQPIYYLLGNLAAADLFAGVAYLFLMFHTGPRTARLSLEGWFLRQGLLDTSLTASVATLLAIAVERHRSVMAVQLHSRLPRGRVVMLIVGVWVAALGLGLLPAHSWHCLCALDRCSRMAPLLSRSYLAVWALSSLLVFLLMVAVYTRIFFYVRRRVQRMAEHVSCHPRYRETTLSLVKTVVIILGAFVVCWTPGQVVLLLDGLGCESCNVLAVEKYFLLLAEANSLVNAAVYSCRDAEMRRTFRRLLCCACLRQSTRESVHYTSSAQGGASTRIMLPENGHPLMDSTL
Emax for assorted compounds
observed-property: Emax (%)

[
  {
    "compound": "CCCCCCCC/C=C\\CCCCCCCC(=O)NCCC(=O)P(O)(O)=S",
    "measured-result": 46
  },
  {
    "compound": "CCCCCCCC/C=C\\CCCCCCCC(=O)NCCC(O)P(=O)(O)O (stereo unspecified)",
    "measured-result": 90
  },
  {
    "compound": "CCCCCCCC/C=C\\CCCCCCCC(=O)OC[C@@H](O)COP(=O)(O)O",
    "measured-result": 100
  },
  {
    "compound": "CCCCCCCC/C=C\\CCCCCCCC(=O)NCCC(F)P(=O)(O)O (stereo unspecified)",
    "measured-result": 100
  },
  {
    "compound": "CCCCCCCC/C=C\\CCCCCCCC(=O)NCCOP(=O)(O)O",
    "measured-result": 110
  },
  {
    "compound": "CCCCCCCC/C=C\\CCCCCCCC(=O)NCCC(=O)P(=O)(O)O",
    "measured-result": 90
  }
]

----------
# key: entry, value: EC50
biological target: UniProt:Q92633; test: Agonistic activity against lysophosphatidic acid receptor 1 using [35S]GTP-gamma-S as radioligand tested in vitro; format: functional
observed-property: EC50

[
  {
    "compound": "CCCCCCCC/C=C\\CCCCCCCC(=O)NCCC(F)P(=O)(O)O (configuration not stated)",
    "measured-result": "> 5000 nM"
  },
  {
    "compound": "CCCCCCCC/C=C\\CCCCCCCC(=O)NCCC(=S)P(=O)(O)O",
    "measured-result": "318 nM"
  },
  {
    "compound": "CCCCCCCC/C=C\\CCCCCCCC(=O)NCCCP(=O)(O)O",
    "measured-result": "1950 nM"
  },
  {
    "compound": "CCCCCCCC/C=C\\CCCCCCCC(=O)OC[C@@H](O)COP(=O)(O)O",
    "measured-result": "17 nM"
  },
  {
    "compound": "CCCCCCCC/C=C\\CCCCCCCC(=O)NCCC(=O)P(=O)(O)O",
    "measured-result": "221 nM"
  },
  {
    "compound": "CCCCCCCC/C=C\\CCCCCCCC(=O)NCCC(=O)P(O)(O)=S",
    "measured-result": "40 nM"
  },
  {
    "compound": "CCCCCCCC/C=C\\CCCCCCCC(=O)NCCC(O)(P(=O)(O)O)P(=O)(O)O",
    "measured-result": "> 5000 nM"
  }
]
